Observed pKi values for GST-Ubr-box of Ubr1 (Homo sapiens (Human)) are listed in what follows.
pKi: −log10 of the molar value. Non-standard residues stand in square brackets, D forms with d. Residues, ends and D or L forms follow the SMILES beside them. Tyr(3-NO2) = N[C@@H](Cc1ccc(O)c([N+](=O)[O-])c1)C(=O)O; Arg(Me2a) = CN(C)C(=N)NCCC[C@H](N)C(=O)O; 4Pal = N[C@@H](Cc1ccncc1)C(=O)O; 2Thi = N[C@@H](Cc1cccs1)C(=O)O

{"Compound": "CN(C)C(=N)NCCC[C@H](N)C(=O)N1CCC[C@H]1C(=O)N[C@@H](Cc1ccccc1)C(N)=O [Compound 31] (H-[Arg(Me2a)]-Pro-Phe-NH2)", "pKi": "< 4.00"}

Hey, quick one: what's pKi for each of these?
1. CN(C)C(=N)NCCC[C@H](N)C(=O)N[C@@H](Cc1ccc(O)c([N+](=O)[O-])c1)C(=O)N[C@@H](Cc1ccccc1)C(N)=O [Compound 19] (H-[Arg(Me2a)]-[Tyr(3-NO2)]-Phe-NH2)
2. CC[C@H](C)[C@H](NC(=O)[C@@H](N)CCCNC(=N)NCC(F)(F)F)C(=O)N[C@@H](Cc1ccccc1)C(N)=O
3. NC(=O)[C@H](Cc1ccccc1)NC(=O)[C@@H](N)Cc1ccc(O)c([N+](=O)[O-])c1 [Compound 18] (H-[Tyr(3-NO2)]-Phe-NH2)
4. CCC(C)C(NC(=O)[C@@H](N)CCCNC(=N)N)C(=O)N[C@@H](Cc1ccccc1)C(N)=O (stereo partly drawn)
5. CC[C@H](C)[C@H](NC(=O)[C@@H](N)Cc1ccc(NC(N)=O)cc1)C(=O)N[C@@H](Cc1ccccc1)C(N)=O
6. CN(C)C(=N)NCCC[C@H](N)C(=O)N[C@@H](Cc1cscn1)C(=O)N[C@@H](Cc1ccccc1)C(N)=O

["> 6.00", "> 6.00", "< 4.00", "5.00 to 6.00", "< 4.00", "5.00 to 6.00"]

Batch request: pKi for each of the following compounds.
1. CC[C@H](C)[C@H](NC(=O)[C@@H](N)Cc1ccncc1)C(=O)N[C@@H](Cc1ccccc1)C(N)=O [Compound 23] (H-[4Pal]-Ile-Phe-NH2)
2. CNC(=N)N(C)CCC[C@H](N)C(=O)N[C@@H](Cc1ccc(O)c([N+](=O)[O-])c1)C(=O)N[C@@H](Cc1ccccc1)C(N)=O [Compound 11]
3. CC[C@H](C)[C@H](NC(=O)[C@@H](N)Cc1cccs1)C(=O)N[C@@H](Cc1ccccc1)C(N)=O [Compound 21] (H-[2Thi]-Ile-Phe-NH2)
4. CC[C@H](C)[C@H](NC(=O)[C@@H](N)CCC/N=C(\N)N(C)C)C(=O)N[C@@H](Cc1ccccc1)C(N)=O [Compound 32] (H-[Arg(Me2a)]-Ile-Phe-NH2)
5. N=C(N)NCCC[C@H](N)C(=O)N[C@@H](Cc1ccc(O)c(Cl)c1)C(=O)N[C@@H](Cc1ccccc1)C(N)=O

1. < 4.00
2. 4.00 to 5.00
3. < 4.00
4. 5.00 to 6.00
5. 5.00 to 6.00

* * *

// pKi collected for GST-Ubr-box of Ubr1 (Homo sapiens (Human))
pKi: −log10 of the molar value. Non-standard residues stand in square brackets, D forms with d. Residues, ends and D or L forms follow the SMILES beside them. ξ: configuration not given here. dPhe(4-guanidino) = N=C(N)Nc1ccc(C[C@@H](N)C(=O)O)cc1; Phe(4-guanidino) = N=C(N)Nc1ccc(C[C@H](N)C(=O)O)cc1; Tyr(3-F) = N[C@@H](Cc1ccc(O)c(F)c1)C(=O)O; Arg(Me2a) = CN(C)C(=N)NCCC[C@H](N)C(=O)O; Phe(4-NH2) = Nc1ccc(C[C@H](N)C(=O)O)cc1; His(τ-Me) = Cn1cnc(C[C@H](N)C(=O)O)c1; His(π-Me) = Cn1cncc1C[C@H](N)C(=O)O; 4Pal = N[C@@H](Cc1ccncc1)C(=O)O; Ile(3ξ) = CCC(C)[C@H](N)C(=O)O

{"Compound": "CCC(C)[C@H](NC(=O)[C@@H](N)Cc1ccc(NC(C)=O)cc1)C(=O)N[C@@H](Cc1ccccc1)C(N)=O (some centres unmarked) [Compound 24] (H-[Phe(4-NH2)](Ac)-[Ile(3ξ)]-Phe-NH2)", "pKi": "4.00 to 5.00"}
{"Compound": "CC[C@H](C)[C@H](NC(=O)[C@H](Cc1ccccc1)NC(=O)[C@@H](N)Cc1ccncc1)C(N)=O [Compound 22] (H-[4Pal]-Phe-Ile-NH2)", "pKi": "< 4.00"}
{"Compound": "N=C(NCCC[C@H](N)C(=O)N[C@@H](Cc1ccc(O)c(Cl)c1)C(=O)N[C@@H](Cc1ccccc1)C(N)=O)NCC(F)(F)F [Compound 20]", "pKi": "> 6.00"}
{"Compound": "CCNC(=N)N(CC)CCC[C@H](N)C(=O)N[C@H](C(=O)N[C@@H](Cc1ccccc1)C(N)=O)[C@@H](C)CC [Compound 9]", "pKi": "4.00 to 5.00"}

// for each compound below, give its pKi
1. CC[C@H](C)[C@H](NC(=O)[C@@H](N)Cc1nn[nH]n1)C(=O)N[C@@H](Cc1ccccc1)C(N)=O [Compound 8]
2. COc1ccc(C[C@H](NC(=O)[C@H](N)Cc2ccc(N=C(N)N)cc2)C(=O)N[C@@H](Cc2ccccc2)C(N)=O)cc1 [Compound 16] (H-[dPhe(4-guanidino)]-Tyr(Me)-Phe-NH2)
3. CC[C@H](C)[C@H](NC(=O)[C@@H](N)Cc1cncn1C)C(=O)N[C@@H](Cc1ccccc1)C(N)=O [Compound 10] (H-[His(π-Me)]-Ile-Phe-NH2)
4. CN(C)C(=N)NCCC[C@H](N)C(=O)N[C@@H](Cc1ccc(O)c(F)c1)C(=O)N[C@@H](Cc1ccccc1)C(N)=O [Compound 28] (H-[Arg(Me2a)]-[Tyr(3-F)]-Phe-NH2)
5. CC[C@H](C)[C@H](NC(=O)[C@@H](N)Cc1ccc(N=C(N)N)cc1)C(=O)N[C@@H](Cc1ccccc1)C(N)=O [Compound 2] (H-[Phe(4-guanidino)]-Ile-Phe-NH2)
6. CNC(=N)N(C)CCC[C@H](N)C(=O)N[C@@H](Cc1ccc(O)c([N+](=O)[O-])c1)C(=O)N[C@@H](Cc1ccccc1)C(N)=O [Compound 12]
7. CC[C@H](C)[C@H](NC(=O)[C@@H](N)Cc1cn(C)cn1)C(=O)N[C@@H](Cc1ccccc1)C(N)=O [Compound 13] (H-[His(τ-Me)]-Ile-Phe-NH2)

["< 4.00", "> 6.00", "< 4.00", "> 6.00", "5.00 to 6.00", "5.00 to 6.00", "< 4.00"]

* * *

pKi: −log10 of the molar value. Non-standard residues stand in square brackets, D forms with d. Residues, ends and D or L forms follow the SMILES beside them. Tyr(3-NO2) = N[C@@H](Cc1ccc(O)c([N+](=O)[O-])c1)C(=O)O
Measured pKi (GST-Ubr-box of Ubr1 (Homo sapiens (Human), UniProt Q8IWV7))

{"Molecule": "CNC(=N)N(C)CCC[C@H](N)C(=O)N[C@@H](Cc1ccc(O)c(C)c1)C(=O)N[C@@H](Cc1ccccc1)C(N)=O", "pKi": "4.00 to 5.00"}

Please supply pKi for each of the following items, keeping them in order.
1. CC[C@H](C)[C@H](NC(=O)[C@@H](N)CCONC(=N)N)C(=O)N[C@@H](Cc1ccccc1)C(N)=O
2. NCC(=O)N[C@@H](Cc1ccc(O)c([N+](=O)[O-])c1)C(N)=O [Compound 17] (H-Gly-[Tyr(3-NO2)]-NH2)

1. 4.00 to 5.00
2. < 4.00

* * *

Provide the reported pKi of each item.
molecular target: GST-Ubr-box of Ubr2 (Homo sapiens (Human), UniProt Q8IWV8)
Sequence (Q8IWV8 other isoform, or with tags, fused parts or gaps): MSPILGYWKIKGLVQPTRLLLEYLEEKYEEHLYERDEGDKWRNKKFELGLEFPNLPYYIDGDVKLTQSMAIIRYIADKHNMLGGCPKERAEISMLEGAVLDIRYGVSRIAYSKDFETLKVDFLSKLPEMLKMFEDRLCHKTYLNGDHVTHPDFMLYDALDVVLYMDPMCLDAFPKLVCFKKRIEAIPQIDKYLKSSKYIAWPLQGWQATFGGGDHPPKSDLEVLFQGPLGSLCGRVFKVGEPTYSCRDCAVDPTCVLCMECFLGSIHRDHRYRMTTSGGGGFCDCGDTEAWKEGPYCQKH
pKi: −log10 of the molar value. Non-standard residues stand in square brackets, D forms with d. Residues, ends and D or L forms follow the SMILES beside them. dPhe(4-guanidino) = N=C(N)Nc1ccc(C[C@@H](N)C(=O)O)cc1; Arg(Me2a) = CN(C)C(=N)NCCC[C@H](N)C(=O)O; His(π-Me) = Cn1cncc1C[C@H](N)C(=O)O

Use the examples below as a reference point.
{"Compound": "COc1ccc(C[C@H](NC(=O)[C@@H](N)CCCNC(=N)N(C)C)C(=O)N[C@@H](Cc2ccccc2)C(N)=O)cc1 [Compound 15] (H-[Arg(Me2a)]-Tyr(Me)-Phe-NH2)", "pKi": "> 6.00"}
{"Compound": "CC[C@H](C)[C@H](NC(=O)[C@@H](N)Cc1cncn1C)C(=O)N[C@@H](Cc1ccccc1)C(N)=O [Compound 10] (H-[His(π-Me)]-Ile-Phe-NH2)", "pKi": "< 4.00"}
{"Compound": "N=C(NCCC[C@H](N)C(=O)N[C@@H](Cc1ccc(O)c([N+](=O)[O-])c1)C(=O)N[C@@H](Cc1ccccc1)C(N)=O)NCC(F)(F)F [Compound 33]", "pKi": "> 6.00"}
{"Compound": "CN(C)C(=N)NCCC[C@H](N)C(=O)N1CCC[C@H]1C(=O)N[C@@H](Cc1ccccc1)C(N)=O [Compound 31] (H-[Arg(Me2a)]-Pro-Phe-NH2)", "pKi": "< 4.00"}
{"Compound": "COc1ccc(C[C@H](NC(=O)[C@H](N)Cc2ccc(N=C(N)N)cc2)C(=O)N[C@@H](Cc2ccccc2)C(N)=O)cc1 [Compound 16] (H-[dPhe(4-guanidino)]-Tyr(Me)-Phe-NH2)", "pKi": "> 6.00"}

Request body: readout pKi, system GST-Ubr-box of Ubr2 (Homo sapiens (Human), UniProt Q8IWV8), query CC(C[C@H](NC(=O)[C@@H](N)CCCNC(=N)N)C(=O)N[C@@H](Cc1ccccc1)C(N)=O)C(F)(F)F (stereo partly drawn) [Compound 26] . Return the value.
> 6.00
